target-desc: native mouse MET on living cells (mouse, UniProt P16056 25-1379)
test-details: cell-based or functional assay
For each of the binders below, state its protection from staurosporine, viability EC50, MLP29 cells.
Give bare numbers, in nM.

76G7 chimeric llama-human IgG1 mAb (antibody, V domains shown, llama VH on human IgG1 CH1-CH2-CH3, llama VL on human lambda CL) VH: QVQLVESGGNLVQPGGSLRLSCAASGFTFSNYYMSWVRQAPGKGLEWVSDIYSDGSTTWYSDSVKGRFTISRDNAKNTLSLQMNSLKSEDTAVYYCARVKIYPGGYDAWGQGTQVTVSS VL: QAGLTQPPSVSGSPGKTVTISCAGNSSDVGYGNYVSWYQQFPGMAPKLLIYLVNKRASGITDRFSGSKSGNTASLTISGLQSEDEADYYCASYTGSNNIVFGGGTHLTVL; 30.1

Dear colleague, I am looking for the recorded protection from staurosporine, viability EC50, MLP29 cells of the following binder: 71C3 chimeric llama-human IgG1 mAb (antibody, V domains shown, llama VH on human IgG1 CH1-CH2-CH3, llama VL on human lambda CL) VH: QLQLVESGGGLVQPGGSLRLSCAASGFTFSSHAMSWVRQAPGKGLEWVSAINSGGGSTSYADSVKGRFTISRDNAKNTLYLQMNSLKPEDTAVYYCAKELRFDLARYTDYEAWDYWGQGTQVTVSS VL: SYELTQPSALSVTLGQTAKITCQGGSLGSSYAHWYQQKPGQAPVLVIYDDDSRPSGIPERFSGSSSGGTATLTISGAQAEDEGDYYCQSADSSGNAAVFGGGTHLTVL
31
